methodDescription: yeast AGP1-GFP level changes, GLN3 branch – cell-based, multiplex flow cytometry, S. cerevisiae, primary screen (AID 1887);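 also: AGP1-GFP fusion strain of S. cerevisiae within a five-strain barcoded multiplex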
runParameters: 3 h, at 10 µM, stronger effect = higher value
Inconclusive results are not listed. Calls of active or inactive are those of the source.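 The calls were made as follows: active = GFP signal above the screen-wide mean plus 3 SD, that is over about 124.5% of the solvent control; inconclusive = no reading because the compound's own fluorescence disturbed strain identification; inactive = the rest.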
endpointLabel: GFP response, % of DMSO

- CC(C)c1ccc(/C=C/C(=O)O)cc1: 83.4% (inactive)
- C=C(C)[C@@H]1CC=C(CN2CCC(N3CCC(C(=O)N4CCCC4)CC3)CC2)CC1: 101% (inactive)
- N/C(=N\OC(=O)/C=C/c1ccccc1)c1ccc(Br)cc1: 94.2% (inactive)
- COc1ccc(C(=O)Oc2ccc3c(C)cc(=O)oc3c2C(C)=O)cc1: 106% (inactive)
- O=C1c2ccccc2N2C(=O)c3ccccc3C2N1Cc1ccco1 (stereo not given): 89.8% (inactive)
- Cc1ccc(CSCC(=O)N2CCCC2)cc1: 106% (inactive)
- O=Cc1ccc(O)c(O)c1: 108% (inactive)
- O=C(O)Cc1ccc(O)c(F)c1: 91% (inactive)
- CC(C)C12CN3CC(C(C)C)(CN(C1)C3c1ccccc1O)C2=O (stereo not given): 87% (inactive)
- O=C(NCCC(c1ccccc1)c1ccco1)c1cccs1 (stereo not given): 96.5% (inactive)

Data origin: PubChem BioAssay
